Cited source: patent US10239881B2

Reported pIC50 for target or system UniProtKB O43353, by entry.
Sequence (O43353 1-299): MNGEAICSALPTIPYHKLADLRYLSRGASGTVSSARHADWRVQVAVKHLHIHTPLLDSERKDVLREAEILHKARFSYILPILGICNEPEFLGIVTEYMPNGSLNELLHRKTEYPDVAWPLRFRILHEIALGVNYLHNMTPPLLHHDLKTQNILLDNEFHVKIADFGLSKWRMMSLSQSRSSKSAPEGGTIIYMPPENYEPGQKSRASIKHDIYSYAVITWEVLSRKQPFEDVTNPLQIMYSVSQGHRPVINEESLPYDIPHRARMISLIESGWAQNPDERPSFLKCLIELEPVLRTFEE
pIC50: −log10 of the molar value.

Completed entries (count: 4):
> print(dat)
                                 cpd.smiles  measure.name  recorded.value
1  Cc1ccccc1-c1cc2nc(N[C@H]3CC[C@@H](O)CC3)ncc2[nH]1         pIC50    6.30 to 7.00
2  Cc1ccccc1-c1cc2nc(Nc3ccc(CN4CCOCC4)cc3)ncc2[nH]1         pIC50          ≥ 7.00
3  Cc1nc(Nc2ncc3[nH]c(-c4ccccc4C)cc3n2)cc(N2CCN(CCO)CC2)n1         pIC50          < 6.30
4  Cc1ccccc1-c1cc2nc(Nc3cccc(N4CCOCC4)c3)ncc2[nH]1         pIC50          ≥ 7.00

Data request: For Cc1ccccc1-c1cc2nc(Nc3cccc(CN4CCN(C)CC4)c3)ncc2[nH]1 , what is its reported pIC50?
Data returned: ≥ 7.00

Data request: For c1ccc(Nc2ncc3[nH]c(-c4ccccc4)cc3n2)cc1 , what is its reported pIC50?
Data returned: < 6.30

Data request: For COc1ccccc1-c1cc2nc(Nc3cccc(N4CCOCC4)c3)ncc2[nH]1 , what is its reported pIC50?
Data returned: 6.30 to 7.00

Data request: For Cc1ccccc1-c1cc2nc(Nc3ccc(CN4CCN(C)CC4)cc3)ncc2[nH]1 , what is its reported pIC50?
Data returned: ≥ 7.00

Data request: For CN1CCN(c2cccc(Nc3ncc4[nH]c(-c5ccsc5)cc4n3)c2)CC1 , what is its reported pIC50?
Data returned: ≥ 7.00
